- Tested on: GABAA receptor complex (TBPS binding)
- TEST: TBPS Binding Assay
- Parameters: species or system Wistar rats
- COND: [35S]TBPS 0.4 nM, GABA 1 μM, rat cerebral cortex membrane, +% inverse agonistic, 0% antagonistic
PARAMETER MEASURED: TBPS binding Variation Rate (%)

Some entries whose results are on file:
{"COMPOUND": "CCc1nc(-c2cc3c(C(C)C)nccc3[nH]c2=O)no1 [Example 16]", "TBPS binding Variation Rate [%]": 38}
{"COMPOUND": "Cc1noc(-c2cc3c(-c4cccc(F)c4)nccc3[nH]c2=O)n1 [Example 177]", "TBPS binding Variation Rate [%]": 29}
{"COMPOUND": "CCc1nc(-c2cc3c(CC)nccc3[nH]c2=O)no1 [Example 14]", "TBPS binding Variation Rate [%]": 38}
{"COMPOUND": "Cc1nc(-c2cc3c(-c4ccccc4)nccc3[nH]c2=O)no1 [Example 4]", "TBPS binding Variation Rate [%]": 20}

(a) Cc1ccc(-c2nccc3[nH]c(=O)c(-c4nc(C)no4)cc23)cc1 [Example 184]
(b) Cc1noc(-c2cc3c(-c4ccccc4F)nccc3[nH]c2=O)n1 [Example 176]
Ask | Would you mind telling me which has the lower recorded TBPS binding Variation Rate between a and b ? Field: selected label. Fill in the label of the entry you choose.
Reply | a

###

- System: GABAA receptor complex (TBPS binding)
- TEST: TBPS Binding Assay
- Design: species or system Wistar rats
- COND: [35S]TBPS 0.4 nM, GABA 1 μM, rat cerebral cortex membrane, +% inverse agonistic, 0% antagonistic
PARAMETER MEASURED: TBPS binding Variation Rate (%)

A selection of reference data follows.
{"MOLECULE": "Cc1ccc(-c2nccc3[nH]c(=O)c(-c4nc(C5CC5)no4)cc23)cc1 [Example 244]", "TBPS binding Variation Rate (%)": -15}
{"MOLECULE": "CCc1nc(-c2cc3c(-c4cccc5ccccc45)nccc3[nH]c2=O)no1 [Example 100]", "TBPS binding Variation Rate (%)": -23}
{"MOLECULE": "CCc1nc(-c2cc3c(-c4ccccc4Cl)nccc3[nH]c2=O)no1 [Example 96]", "TBPS binding Variation Rate (%)": 16}

(1) CC(C)c1nc(-c2cc3c(-c4ccc(F)cc4)nccc3[nH]c2=O)no1 [Example 47]
(2) CCc1nc(-c2cc3c(CC4CCCCC4)nccc3[nH]c2=O)no1 [Example 24]
Ask | Please let me know which one, 1 or 2 , has a lower measured TBPS binding Variation Rate value. Refer to your chosen item by its label in the answer.
Reply | 1

###

- TESTED ON: benzodiazepine receptor
- TEST: Benzodiazepine Receptor Binding Assay
- COND: read-out: BZP-receptor Binding IC50; [3H]-diazepam 1.5 nM; rat brain crude synaptosome membrane; 0° C., 20 min
pIC50: −log10 of the molar value.
PARAMETER MEASURED: pIC50

Examples with their reported pIC50 follow.
{"COMPOUND": "Cc1noc(-c2cc3c(-c4cccs4)nccc3[nH]c2=O)n1 [Example 189]", "pIC50": 9.08}
{"COMPOUND": "O=c1[nH]c2ccnc(-c3ccccc3)c2cc1-c1nc(C2CC2)no1 [Example 235]", "pIC50": 9.04}
{"COMPOUND": "CCc1nc(-c2cc3c(C4CC4C)nccc3[nH]c2=O)no1 (centres unmarked) [Example 18]", "pIC50": 8.69}

(A) CCCc1noc(-c2cc3c(-c4ccc(F)cc4)nccc3[nH]c2=O)n1 [Example 219]
(B) O=c1[nH]c2ccnc(-c3ccc(F)cc3)c2cc1-c1noc(C2CC2)n1 [Example 54]
Ask | Hey, between A and B which has a smaller measured pIC50? Indicate your choice by writing its label.
Reply | A
